log10 of IC50: recorded values
Target: PI3K alpha (Homo sapiens, UniProt P42336)
Construct: p85(iSH2) fusion partner (see partner chain) (N); His tag (C); Tn5 (Trichoplusia ni) or TiniPro insect cells
Sequence (P42336 with tags, fused parts or gaps limits assumed): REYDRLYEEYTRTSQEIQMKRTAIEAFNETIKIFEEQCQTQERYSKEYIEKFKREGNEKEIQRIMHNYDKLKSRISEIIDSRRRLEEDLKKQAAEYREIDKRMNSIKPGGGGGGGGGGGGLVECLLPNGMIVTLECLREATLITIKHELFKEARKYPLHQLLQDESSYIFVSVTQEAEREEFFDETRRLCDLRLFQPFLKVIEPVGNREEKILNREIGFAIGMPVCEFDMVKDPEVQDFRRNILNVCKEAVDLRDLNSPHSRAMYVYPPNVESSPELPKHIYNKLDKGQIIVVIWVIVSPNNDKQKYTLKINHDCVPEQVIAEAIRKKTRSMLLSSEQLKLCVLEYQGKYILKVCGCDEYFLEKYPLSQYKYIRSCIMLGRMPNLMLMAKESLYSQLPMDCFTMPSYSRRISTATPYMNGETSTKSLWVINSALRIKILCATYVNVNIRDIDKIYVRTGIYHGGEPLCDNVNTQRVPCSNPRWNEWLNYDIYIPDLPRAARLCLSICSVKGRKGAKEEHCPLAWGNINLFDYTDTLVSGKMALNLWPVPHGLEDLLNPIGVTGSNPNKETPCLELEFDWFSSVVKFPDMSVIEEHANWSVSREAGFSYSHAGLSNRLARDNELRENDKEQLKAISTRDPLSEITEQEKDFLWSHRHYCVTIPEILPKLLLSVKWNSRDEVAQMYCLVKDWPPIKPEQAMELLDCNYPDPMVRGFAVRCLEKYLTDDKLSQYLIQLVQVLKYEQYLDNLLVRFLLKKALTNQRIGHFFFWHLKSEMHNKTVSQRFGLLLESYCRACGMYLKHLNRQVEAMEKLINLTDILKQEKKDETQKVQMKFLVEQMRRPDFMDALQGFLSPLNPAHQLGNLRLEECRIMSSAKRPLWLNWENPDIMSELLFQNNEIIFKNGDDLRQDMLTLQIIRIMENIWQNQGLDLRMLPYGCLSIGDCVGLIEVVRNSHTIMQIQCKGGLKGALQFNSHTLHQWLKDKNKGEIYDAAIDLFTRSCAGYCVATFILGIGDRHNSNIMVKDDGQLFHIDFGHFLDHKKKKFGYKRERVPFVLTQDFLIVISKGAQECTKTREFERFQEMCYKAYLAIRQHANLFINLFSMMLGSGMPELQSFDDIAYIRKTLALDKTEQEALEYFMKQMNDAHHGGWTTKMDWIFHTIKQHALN
Assay: PI3K alpha kinase assay (Kinase-Glo luminescence)
observedProperty: log10 of IC50 (log10 of the value in nM)

                                 inputsmiles                        experimentalsystem  observedproperty  valueobserved
 0  Cc1nn(C)cc1-n1c(=O)n(C)c2cnc3ccc(-c4cnc(F)c(N)c4)cc3c21  PI3K alpha (Homo sapiens, UniProt P42336)     log10 of IC50           0.85
 1  Cc1nn(C)cc1-n1c(=O)n(C)c2cnc3ccc(-c4cnc(N)c(C(F)(F)F)c4)cc3c21  PI3K alpha (Homo sapiens, UniProt P42336)     log10 of IC50           1.15
 2  Cc1nn(C)cc1-n1c(=O)n(C)c2cnc3ccc(-c4cncc(NC(C)C)c4)cc3c21  PI3K alpha (Homo sapiens, UniProt P42336)     log10 of IC50           1.15
 3  Cc1nn(C)cc1-n1c(=O)[nH]c2cnc3ccc(-c4cnc(N(C)C)nc4)cc3c21  PI3K alpha (Homo sapiens, UniProt P42336)     log10 of IC50           1.15
 4  CCn1cc(-n2c(=O)n(C)c3cnc4ccc(-c5ccc(OC)nc5)cc4c32)c(C)n1  PI3K alpha (Homo sapiens, UniProt P42336)     log10 of IC50           1.38
 5  Cc1ncc(-c2ccc3ncc4c(c3c2)n(-c2cn(C)nc2Cl)c(=O)n4C)cc1N  PI3K alpha (Homo sapiens, UniProt P42336)     log10 of IC50           1.04
 6  Cc1nn(C)cc1-n1c(=O)n(C)c2cnc3ccc(-c4cncc(OC(CF)CF)c4)cc3c21  PI3K alpha (Homo sapiens, UniProt P42336)     log10 of IC50           0.95
 7  CCn1cc(-n2c(=O)n(C)c3cnc4ccc(-c5ccc(OC)c(OC)c5)cc4c32)c(C)n1  PI3K alpha (Homo sapiens, UniProt P42336)     log10 of IC50           0.90
 8  CCOc1ccc(-c2ccc3ncc4c(c3c2)n(-c2ccnn2CC)c(=O)n4C)cn1  PI3K alpha (Homo sapiens, UniProt P42336)     log10 of IC50           2.34
 9  Cn1nccc1-n1c(=O)n(C)c2cnc3ccc(-c4ccc(NCCO)nc4)cc3c21  PI3K alpha (Homo sapiens, UniProt P42336)     log10 of IC50           2.43
10  COCCOc1ccc(-c2ccc3ncc4c(c3c2)n(-c2cn(C)nc2C)c(=O)n4C)cn1  PI3K alpha (Homo sapiens, UniProt P42336)     log10 of IC50           1.93
11  CCOc1ccc(-c2ccc3ncc4c(c3c2)n(-c2cn(CC)nc2C)c(=O)n4C)cc1OCC  PI3K alpha (Homo sapiens, UniProt P42336)     log10 of IC50           0.90
12  Cc1nn(CCO)cc1-n1c(=O)n(C)c2cnc3ccc(-c4cncc(N5CCOCC5)c4)cc3c21  PI3K alpha (Homo sapiens, UniProt P42336)     log10 of IC50           1.64
13  CCOc1cc(-c2ccc3ncc4c(c3c2)n(-c2cn(C(C)C)nc2C)c(=O)n4C)cnc1COC  PI3K alpha (Homo sapiens, UniProt P42336)     log10 of IC50           1.61
14  CCn1nccc1-n1c(=O)n(C)c2cnc3ccc(-c4ccc(OC)nc4)cc3c21  PI3K alpha (Homo sapiens, UniProt P42336)     log10 of IC50           2.16
15  Cc1nn(C)cc1-n1c(=O)n(C)c2cnc3ccc(-c4cnc5c(c4)OCCN5C)cc3c21  PI3K alpha (Homo sapiens, UniProt P42336)     log10 of IC50           0.78
